List of growth values.
- System: MOLT-4 leukemia
- runDescription: NCI-60 one-dose screen, 48 h (100 = growth as untreated, 0 = no growth, -100 = all killed)
- conditionDescription: 10 µM unless noted
About 83,000 compounds went through this panel and 20% of them were active in at least one assay; those are over-represented in the sample as a whole. Active and inactive are the calls of the source. Rule for the calls: active = growth percent below 10; inactive = the rest.
attributeMeasured: growth

INSERT INTO assay_data (compound, measurementtarget, attributemeasured, result) VALUES
  ('N#Cc1ccc(/C=N/NC(=O)c2[nH]c3ccc(Br)cc3c2-c2ccccc2)s1', 'MOLT-4 leukemia', 'growth', '4.12% (active)'),
  ('Clc1ccc2oc3c(OCCCn4ccnc4)c4ccccc4nc3c2c1', 'MOLT-4 leukemia', 'growth', '24.7% (inactive)'),
  ('Cn1ccnc1C(=O)/C=C/c1ccc(NC(=O)Nc2ccccc2)cc1', 'MOLT-4 leukemia', 'growth', '4.35% (active)'),
  ('CC(C)Sc1nc(Nc2ccc(S(N)(=O)=O)cc2)c(C#N)c(-c2ccc(F)cc2)n1', 'MOLT-4 leukemia', 'growth', '49.9% (inactive)'),
  ('CCOc1ccc2nc(NC(=O)c3ccc(C(F)(F)F)cc3)sc2c1', 'MOLT-4 leukemia', 'growth', '103% (inactive)'),
  ('N#Cc1nc(-c2ccccc2)oc1S(=O)(=O)N1CCCCC1', 'MOLT-4 leukemia', 'growth', '0.441% (active)'),
  ('CC(=NNc1ncnc2ccccc12)c1ccc(S(C)(=O)=O)cc1', 'MOLT-4 leukemia', 'growth', '100% (inactive)'),
  ('COc1ccc(/C=C2\SC(=Nc3cc(C)[nH]n3)NC2=O)cc1', 'MOLT-4 leukemia', 'growth', '94% (inactive)'),
  ('Nc1c(C(=O)Nc2ccc(Cl)cc2)sc2nc(-c3cnccn3)cc(-c3cccs3)c12', 'MOLT-4 leukemia', 'growth', '70.1% (inactive)'),
  ('Cn1cc(-c2cc(N)n3nc(-c4cn(C)c5ccc(Cl)cc45)cc3n2)c2cc(Cl)ccc21', 'MOLT-4 leukemia', 'growth', '51% (inactive)'),
  ('O=C(N/N=C/c1ccc([N+](=O)[O-])s1)c1[nH]c2ccc(Br)cc2c1-c1ccccc1', 'MOLT-4 leukemia', 'growth', '9.21% (active)'),
  ('CS(=O)(=O)c1ccc(-c2nc3ccccn3c2C=Nc2ccc(Cl)cc2)cc1', 'MOLT-4 leukemia', 'growth', '64.9% (inactive)'),
  ('CCOC(=O)c1sc(N)c(C(=O)OCC)c1C', 'MOLT-4 leukemia', 'growth', '26.5% (inactive)'),
  ('COc1cc2cc(Oc3ccc(NC(=O)c4cccc(C(F)(F)F)c4)cc3)c(C)nc2cc1OCCN1CCCCC1', 'MOLT-4 leukemia', 'growth', '1.53% (active)'),
  ('N#Cc1c(-c2ccc(Cl)cc2)nc(SCc2ccccc2)nc1N1CCNCC1', 'MOLT-4 leukemia', 'growth', '52.7% (inactive)'),
  ('NS(=O)(=O)c1ccc(Nc2nc(Nc3ccccc3)nc(-n3nc(-c4ccccc4)cc3-c3ccccc3)n2)cc1', 'MOLT-4 leukemia', 'growth', '4.14% (active)'),
  ('O=c1[nH]c2ccc(Cl)cc2cc1CSc1ccccc1Nc1nccc(-c2ccc(Cl)cc2)n1', 'MOLT-4 leukemia', 'growth', '60.9% (inactive)'),
  ('COc1ccc(CNS(=O)(=O)/N=C2\NC(=O)NC2=C(Cl)Cl)cc1', 'MOLT-4 leukemia', 'growth', '19% (inactive)'),
  ('COC(=O)C1CCCN(S(=O)(=O)/N=C2\NC(=O)NC2=C(Cl)Cl)C1 (stereo unspecified)', 'MOLT-4 leukemia', 'growth', '96.3% (inactive)'),
  ('O=C1c2c(c3c4cc(Br)ccc4[nH]c3c3ccc4ccccc4c23)C(=O)N1CCO', 'MOLT-4 leukemia', 'growth', '70.5% (inactive)'),
  ('CN(C)CCCOc1c2ccccc2nc2c1oc1ccc(Cl)cc12', 'MOLT-4 leukemia', 'growth', '-1.53% (active)'),
  ('COc1cc(/C=C/C(=O)c2cc(OC)c(OC)c(OC)c2)ccc1OCc1ccc(F)cc1', 'MOLT-4 leukemia', 'growth', '46.2% (inactive)'),
  ('COc1cc2nc(-c3ccc(Cl)cc3)cc(OCCCNCC3CCCO3)c2cc1OC (stereo unspecified)', 'MOLT-4 leukemia', 'growth', '40.6% (inactive)'),
  ('O=C1Nc2ccccc2Oc2ccc(S(=O)(=O)CC3CO3)cc21 (stereo unspecified)', 'MOLT-4 leukemia', 'growth', '42.8% (inactive)'),
  ('O=C1C2=C(C(=O)c3c(O)cccc31)C(c1ccco1)c1sc(=O)[nH]c1S2 (stereo unspecified)', 'MOLT-4 leukemia', 'growth', '0.849% (active)'),
  ('O=C(N/N=C/c1ccc(Cl)s1)c1[nH]c2ccc(Br)cc2c1-c1ccccc1', 'MOLT-4 leukemia', 'growth', '14.1% (inactive)'),
  ('CSCCC(C(=O)O)N1C(=O)/C(=C/c2ccc(O)c(O)c2)SC1=S (stereo unspecified)', 'MOLT-4 leukemia', 'growth', '108% (inactive)'),
  ('COc1cc(/C=C/C(=O)c2cc(OC)c(OC)c(OC)c2)ccc1Oc1nc(NCCO)nc(N2CCOCC2)n1', 'MOLT-4 leukemia', 'growth', '6.72% (active)'),
  ('N#Cc1nc(-c2ccccc2)oc1N1CCC(CO)C1 (stereo unspecified)', 'MOLT-4 leukemia', 'growth', '108% (inactive)'),
  ('COc1cccc(N2CCN(c3ncnc4c3[nH]c3ccc(F)cc34)C[C@@H]2C)c1', 'MOLT-4 leukemia', 'growth', '-42% (active)'),
  ('CN(C)c1ccc(-c2c(NC(C)(C)C)nc3c(OCCc4ccccc4)cccn23)cc1', 'MOLT-4 leukemia', 'growth', '1.16% (active)');

====

- System: SNB-75 CNS
- runDescription: NCI-60 one-dose screen, 48 h (100 = growth as untreated, 0 = no growth, -100 = all killed)
- conditionDescription: 10 µM unless noted
Compounds without any hit were thinned out: in the full panel of roughly 83,000, 20% have a hit.
Labelling: growth reported below 80% becomes true; at or above becomes false.

INSERT INTO results (compound, assignedlabel) VALUES
  ('CCN1CCN(S(=O)(=O)c2oc(-c3ccc(Cl)cc3)nc2C#N)CC1', 'false'),
  ('CCOC(=O)c1c(Nc2ccccc2)nn2c(N)c(C#N)c(-c3ccccc3)nc12', 'false'),
  ('CC(C)(C)Nc1nc2c(OCCc3ccccc3)cccn2c1-c1ccc(O)cc1', 'false'),
  ('CCCCCCNC(=O)Oc1ccc(/C(=C(/C)c2ccccc2)c2ccc(OCCN3CCCCCC3)cc2)cc1', 'true'),
  ('COC1CCN(Cc2ccc3c(NNC(=O)c4cnccn4)nc4cc(F)ccc4n23)C1 (stereo not given)', 'true'),
  ('OC1CCN(CCCOc2c3ccccc3nc3c2oc2ccccc23)CC1', 'true'),
  ('N#Cc1nc(-c2ccccc2)oc1S(N)(=O)=O', 'false'),
  ('CN(C)CCCNc1c2ccc(Cl)cc2nc2c1oc1ccccc12', 'true'),
  ('COc1cccc(N2CCN(c3ncnc4c3[nH]c3ccc(F)cc34)C[C@@H]2C)c1', 'true'),
  ('COc1cc(-c2nc3ccc(-c4nnc(SCC(=O)Nc5ccc(C(=O)/C=C/c6ccc(Cl)cc6)cc5)o4)cc3[nH]2)cc(OC)c1OC', 'false'),
  ('C/C(=N\NC(N)=O)c1c(O)sc(=O)[nH]c1=O', 'false'),
  ('Nc1nc(N)c2c(n1)NC(c1ccc(C(F)(F)F)cc1)CC(c1ccc(Nc3nc(NCCO)nc(Nc4ccc(Cl)cc4)n3)cc1)=N2 (stereo not given)', 'true'),
  ('Clc1ccc2c(NCCCn3ccnc3)c3oc4ccccc4c3nc2c1', 'true'),
  ('NS(=O)(=O)c1ccc(Nc2nc(Nc3ccccc3)nc(-n3nc(-c4ccccc4)cc3-c3ccccc3)n2)cc1', 'true'),
  ('CCOC(=O)c1c(NC(=O)c2cccc(C(F)(F)F)c2)sc2cc(O)ccc12', 'true'),
  ('Fc1ccc(-c2cc3nc(C(Cl)Cl)nc(-c4ccc(Cl)cc4)n3n2)cc1', 'true'),
  ('C[C@@H]1CN(c2ccc3ncc(C#Cc4cncc(C(=O)Nc5ccc(CN6CCN(C)CC6)c(C(F)(F)F)c5)c4)n3n2)C[C@H](C)O1', 'true'),
  ('CCOC(=O)c1sc(N)c(C(=O)OCC)c1C', 'true');

====

- Test system: SW-620 colon
- runDescription: NCI-60 one-dose screen, 48 h (100 = growth as untreated, 0 = no growth, -100 = all killed)
- conditionDescription: 10 µM unless noted
This is part of a sample that, as a whole, favours compounds with a hit. Of some 83,000 tested, about 20% had one in any assay. Active and inactive are the calls of the source. How the source made its calls: active means growth percent below 10; inactive means the rest.
attributeMeasured: growth

INSERT INTO assay_data (itemsmiles, measurementtarget, result) VALUES
  ('O=C(N/N=C/c1ccc(Br)s1)c1[nH]c2ccc(Br)cc2c1-c1ccccc1', 'SW-620 colon', '23.6% (inactive)'),
  ('O=C(CN1C(=O)/C(=C/c2ccccc2)SC1=S)N1CCOCC1', 'SW-620 colon', '87.2% (inactive)'),
  ('CC(=NNc1ncnc2ccccc12)c1ccc(S(C)(=O)=O)cc1', 'SW-620 colon', '104% (inactive)'),
  ('Clc1ccc2c(NCCCN3CCOCC3)c3oc4ccccc4c3nc2c1', 'SW-620 colon', '21.8% (inactive)'),
  ('COc1ccc(-c2cc(C(=O)N=Nc3c(O)[nH]c4ccccc34)c3ccccc3n2)cc1OC', 'SW-620 colon', '93.8% (inactive)');
